Measured values drawn from PubChem BioAssay (NCI) for this set.

System: HCT-116 colon
experimental protocol: NCI-60 one-dose screen, 48 h (100 = growth as untreated, 0 = no growth, -100 = all killed)
condition parameters: 10 µM
Compounds without any hit were thinned out: in the full panel of roughly 83,000, 20% have a hit.
# strict inequality: growth < 60% yields label 1, everything else yields label 0

// known answers, use as guide
molecule	tgt	cat
Cc1cc(N(CCCNc2ccnc3cc(Cl)ccc23)Cc2ccc3c(c2)OCO3)nc(N2CCCCC2)n1	HCT-116 colon	label 1
COc1cc(OC)cc(-c2cncn2-c2ccc(-c3nc4cc(OC)cc(OC)c4s3)cc2)c1	HCT-116 colon	label 1
O=C(Nc1ccc(Cl)c([N+](=O)[O-])c1)Nc1nc2ccccc2s1	HCT-116 colon	label 0
Nc1c(C(=O)Nc2ccccc2)sc2nc3c(cc12)CCCC3	HCT-116 colon	label 1
CN(C)C=Nc1cc(Cl)ccc1Cl	HCT-116 colon	label 0

Task: Determine if CC(C)=NNc1ncnc2c1ncn2C1OC(CO)C(O)C1O (stereo not drawn) shows growth strictly lower than 60%.
Result: label 1

Task: Regarding COc1cc2cc3c(nc2cc1OC)CCN3Cc1ccc(NC(=O)c2ccc(Cl)c(C(F)(F)F)c2)cc1 , kindly confirm whether its growth is beneath 60%.
Result: label 0

Task: Record CCCCCC(=O)c1ccc(OCCCN2CCN(C(=O)OCC)CC2)cc1 : is its growth strictly below 60%?
Result: label 0

Task: Is it true that growth reported for CC(=O)c1cc(Cl)ccc1O is less than 60%?
Result: label 0

Task: hey, is growth for COc1ccc(-c2nnc(-c3c(-c4ccccc4)nc4ncccn34)o2)cc1OC lower than 60% or not?
Result: label 0

###

System: RXF 393 renal
experimental protocol: NCI-60 one-dose screen, 48 h
condition parameters: 10 µM
About 83,000 compounds went through this panel and 20% of them were active in at least one assay; those are over-represented in the sample as a whole. Active and inactive are the calls of the source. Rule for the calls: active = growth percent below 10; inactive = the rest.
Hello, when you answer, please use one of the following outcomes: active, inactive

Reference set (5 entries):
molecule	cat
O=C(Nc1cccc(-n2cc(-c3ccncc3)c(-c3ccc(O)c(Cl)c3)n2)c1)Nc1cccc(C(F)(F)F)c1	active
CCCCCCCCCCCCCCCC(=O)OC1[C@@H](OC(=O)CCCCCCCCCCCCCCC)[C@@H](C(=O)N[C@@H](CCCCN)C(=O)OC)O[C@H]1n1cnc2c(=O)[nH]c(NC(=O)C(C)C)nc21 (stereo partly specified)	inactive
COc1ccc(-n2c(SCc3cc(OC)c(OC)c(OC)c3)nc3ccc(C)cc3c2=O)cc1	inactive
Oc1[nH]c2ccc(Cl)cc2c1/C=c1/ccc2c(c1)N=C(c1cccs1)N=2	inactive
COc1ccc(S(=O)(=O)Nc2c(/C=C\c3cc(OC)c(OC)c(OC)c3)ccc(OC)c2O)cc1	inactive

Task: What is the recorded call for this molecule in the test? O=c1oc2cc(OS(=O)(=O)c3ccccc3)ccc2c2c1CCCCC2
Result: inactive

Task: # lookup: test call for COc1ccc(-c2nn(-c3cccc(NC(=O)c4ccc(N5CCOCC5)c(C(F)(F)F)c4)c3)cc2-c2ccncc2)cc1Cl
Result: inactive

Task: Short answer needed: outcome of this test for COc1ccc(Nc2nc3ccc(NC(=O)NC4CCCCC4)cc3[nH]c2=O)cc1 ?
Result: inactive

Task: Give the logged outcome of this assay for the following molecule: O=C(N/N=C/c1ccccc1)C(Oc1ccccc1)c1ccccc1 (stereo unspecified)
Result: inactive

Task: Please indicate how the test categorized COc1ccc([N+](=O)[O-])c(C(=O)O)c1 .
Result: inactive

Task: Recorded call for O=C(c1cccs1)c1ccccc1Cc1ccccc1 ?
Result: inactive

Task: Entry COc1cc(-c2cc(/C=C/C(=O)c3ccc(N)cc3)[nH]n2)cc(OC)c1OC : call = ?
Result: active

Task: // return assay outcome for O=C(N/N=C\c1cc(Cl)ccc1[N+](=O)[O-])c1ccco1
Result: inactive

Task: Outcome? COc1ccc2c(c1)sc1nc(-c3ccccc3)c(-c3cccnc3)n12
Result: inactive

Task: Tell me the assay call for CSC1=NCCCC1 please.
Result: inactive

Task: Outcome? O=C(O)CCCCSc1ncnc2nc[nH]c12
Result: inactive

###

System: MDA-MB-435 melanoma
experimental protocol: NCI-60 one-dose screen, 48 h (100 = growth as untreated, 0 = no growth, -100 = all killed)
condition parameters: 10 µM
The panel holds about 83,000 compounds, 20% with a hit somewhere; the sample as a whole holds those more often.
property: growth (%)
Reply numerically in %, unit not repeated.

Guide cases for growth, answers given:
> print(dat)
                                   compound                  tgt  reported.measurement
1  O=C(Nc1cccc(-n2cc(-c3ccncc3)c(-c3cc(O)cc(Cl)c3)n2)c1)Nc1ccc(Cl)c(C(F)(F)F)c1  MDA-MB-435 melanoma                  9.57
2               O=C(O)CCCCSc1ncnc2nc[nH]c12  MDA-MB-435 melanoma                  99.3
3  COc1ccc2c(c1)C(=O)c1c-2c(=O)n(CCCN(C)C)c2cc(OC)c(OC)cc12  MDA-MB-435 melanoma                  80.9
4  COc1ccc2c(c1)N(CCO)C1=C(C(=O)OC1)C2c1ccccc1 (configuration not stated)  MDA-MB-435 melanoma                 -62.9

Task: Report growth, nothing else, for this compound: CCN(CC)CCCC(C)Nc1ccc2ccc(Cl)cc2n1 (configuration not stated)
Result: 109

Task: Write down growth measured for item O=[N+]([O-])c1cccc(-c2ncc(-c3ccc(Cl)cc3Cl)[nH]2)c1
Result: 76.5

Task: # return recorded growth for input COc1ccc(C(=O)/C=C/c2cc(-c3cc(OC)c(OC)c(OC)c3)n[nH]2)cc1
Result: 15.6

###

Test system: HCT-116 colon
experimental protocol: NCI-60 one-dose screen, 48 h (100 = growth as untreated, 0 = no growth, -100 = all killed)
condition parameters: 10 µM
This is part of a sample that, as a whole, favours compounds with a hit. Of some 83,000 tested, about 20% had one in any assay.
property: growth (%)
Reply numerically in %, unit not repeated.

> print(dat)
                                   compound  reported.measurement
1  COC(=O)C(C(C[N+](=O)[O-])c1ccccc1)=P(c1ccccc1)(c1ccccc1)c1ccccc1 (stereo not drawn)                  4.02
2                            CC(=O)CSC(C)=O                    98

Then this compound:
Task: Check the records and state growth for Nc1nc(N)c(NC(=O)CNc2ccc(C(=O)O)cc2)c(N)n1
Result: 113

###

Test system: SK-MEL-28 melanoma
experimental protocol: NCI-60 one-dose screen, 48 h
condition parameters: 10 µM
About 83,000 compounds went through this panel and 20% of them were active in at least one assay; those are over-represented in the sample as a whole. Active and inactive are the calls of the source. The calls were made as follows: active = growth percent below 10; inactive = the rest.
Use one of these outcomes when replying: True = active, False = inactive

The following compounds have reported results that may help.
> print(dat)
                                   compound    cat
1  COc1cc(-c2nnc(-c3c(-c4ccc(F)cc4)nc4ccccn34)o2)cc(OC)c1OC  False
2  O=C(N/N=C\c1cc(Cl)ccc1[N+](=O)[O-])c1ccco1  False
3  O=C1/C(=C\c2ccc(Cl)cc2)CN(C(=S)Nc2ccccc2)C/C1=C\c1ccc(Cl)cc1   True
4  O=C(N/N=C/c1ccccc1)C(Oc1ccccc1)c1ccccc1 (stereo unspecified)  False
5  COc1ccc(OC)c(/C=C/c2nnc(Nc3ccc(Cl)cc3)o2)c1  False

We now examine a further compound.
Task: GET /call?item= N#CCCN1C/C(=C/c2ccc(Br)cc2)C(=O)/C(=C/c2ccc(Br)cc2)C1 returns the recorded outcome of this test.
Result: True

###

Test system: UO-31 renal
experimental protocol: NCI-60 one-dose screen, 48 h
condition parameters: 10 µM
Compounds without any hit were thinned out: in the full panel of roughly 83,000, 20% have a hit. The source made the active and inactive calls. The calls were made as follows: active = growth percent below 10; inactive = the rest.
Reply using exactly one outcome from active, inactive

Past entries and their recorded results:
> print(dat)
                                   molecule       cat
1                   CC1(C)CCC(=NNC(N)=S)CC1  inactive
2  COc1cc(NC(=O)CCSc2nc3ccc(Cl)cc3c(=O)n2Cc2ccccc2)cc(OC)c1OC  inactive
3  COc1ccc(-c2nn(-c3cccc(NC(=O)Nc4ccc(Cl)c(C(F)(F)F)c4)c3)cc2-c2ccncc2)cc1Cl    active

Then there is this molecule:
Task: Called result for CCc1ccc2c(c1)N(CCO)C1=C(C(=O)OC1)C2c1ccccc1 (centres undefined)
Result: inactive
